Test system: normal human umbilical vein endothelial cells (HUVECs)
Test: Cell growth inhibition assay, normal HUVECs
Format: cell-based
Conditions: HUVEC
measuredParameter: IC50 (nM)
Please state the figure in nM; there is no need to write the unit.

**Q:** I'd like to know its IC50. The molecule in question is `COc1ccc(S(=O)(=O)N2CCc3cccc(-c4ccncc4)c32)cc1`
**A:** 510

---

Tested on: KB-L30 cells
Assay: Cell growth inhibition assay on drug-resistant KB-L30 cells
Assay type: cell-based
Settings: Homo sapiens; KB-L30, BPR0L075 resistance
measuredParameter: pIC50
Give only the number. pIC50 is defined as minus log10 of concentration in molar units.

**Q:** Value wanted: pIC50 (KB-L30 cells) of entry COc1ccc(S(=O)(=O)N2CCc3cccc(-c4ccncc4)c32)cc1 [Compound 24]
**A:** 6.63

---

Test system: non small cell lung carcinoma H460 cells
Experiment: Cell growth inhibition assay (methylene blue dye), H460 cells
Type: cell-based
Conditions: Homo sapiens, NCI-H460, 72 h, read-out: Cell type (IC50 ± SD, nM) H460 (lung)
measuredParameter: IC50

In the examples that follow, each entry is paired with its recorded IC50.
{"molecule": "COc1ccc(S(=O)(=O)N2CCc3cccc(-c4ccncc4)c32)cc1 [Compound 24]", "targetOfAssay": "non small cell lung carcinoma H460 cells", "IC50": "101 nM"}
{"molecule": "COc1ccc(S(=O)(=O)Nc2cccnc2Nc2ccc(O)cc2)cc1 [ABT-751, reference compound]", "targetOfAssay": "non small cell lung carcinoma H460 cells", "IC50": "218 nM"}

**Q:** I'd like to know its IC50. The molecule in question is COc1ccc(S(=O)(=O)N2CCc3cccc(-c4ccc(C#N)cc4)c32)cc1 [Compound 17]
**A:** 29.5 nM

---

Measured pIC50, listed per entry.
Tested on: KB-VIN10 cells
Assay: Cell growth inhibition assay on multidrug resistant KB-VIN10 cells
Assay type: cell-based
Details: Homo sapiens; KB-VIN10 (P-gp170/MDR overexpression), 72 h, methylene blue; read-out: IC50, growth inhibition of KB-VIN10 cells
Give only the number. pIC50 is defined as minus log10 of concentration in molar units.

{"molecule": "COc1ccc(S(=O)(=O)Nc2cccnc2Nc2ccc(O)cc2)cc1 [ABT-751, reference compound]", "measuredParameter": "pIC50", "measuredResult": 6.41}

Continue with the next molecule.
**Q:** I'd like to know its pIC50. The molecule in question is `COc1ccc(S(=O)(=O)N2CCc3cccc(-c4ccncc4)c32)cc1`
**A:** 6.97

---

Measured melting point, listed per entry.

{"testSmiles": "COc1ccc(S(=O)(=O)N2CCc3cccc(-c4ccc(C#N)cc4)c32)cc1", "measuredParameter": "melting point", "measuredResult": "157.2 to 158.9 °C"}
{"testSmiles": "COc1ccc(S(=O)(=O)N2CCc3cccc(-c4ccc(C=O)cc4)c32)cc1", "measuredParameter": "melting point", "measuredResult": "152 to 153 °C"}
{"testSmiles": "COc1ccc(S(=O)(=O)N2CCc3cccc(-c4ccc(C=CC(=O)NO)cc4)c32)cc1", "measuredParameter": "melting point", "measuredResult": "200 to 201 °C"}

**Q:** I'd like to know its melting point. The compound in question is `COc1ccc(S(=O)(=O)n2ccc3ccnc(-c4cccs4)c32)cc1`
**A:** 112.2 to 113.7 °C

**Q:** I'd like to know its melting point. The compound in question is `COC(=O)c1ccc(-c2nccc3ccn(S(=O)(=O)c4ccc(OC)cc4)c23)cc1`
**A:** 143.5 to 146.5 °C

**Q:** I'd like to know its melting point. The compound in question is `COc1ccc(S(=O)(=O)N2CCc3cccc(-c4cccnc4)c32)cc1`
**A:** 178.8 to 181 °C

---

Measured melting point, listed per entry.

{"testSmiles": "COc1ccc(S(=O)(=O)N2CCc3cccc(-c4ccco4)c32)cc1", "melting point": "176.7 to 177.7 °C"}
{"testSmiles": "COc1ccc(S(=O)(=O)N2CCc3cccc(-c4ccc(C(=O)O)cc4)c32)cc1", "melting point": "130.3 to 132.1 °C"}
{"testSmiles": "COc1ccc(-c2cccc3c2N(S(=O)(=O)c2ccc(OC)cc2)CC3)cc1", "melting point": "176.3 to 177.4 °C"}

**Q:** I'd like to know its melting point. The molecule in question is `COc1ccc(S(=O)(=O)n2ccc3ccnc(-c4ccc(Cl)cc4)c32)cc1`
**A:** 125.5 to 128.5 °C

---

measuredParameter: melting point

In the examples that follow, each entry is paired with its recorded melting point.
{"testSmiles": "COc1ccc(S(=O)(=O)n2ccc3ccnc(-c4ccc(C(F)(F)F)cc4)c32)cc1", "melting point": "143.1 to 144.9 °C"}
{"testSmiles": "COc1ccc(S(=O)(=O)N2CCc3cccc(-c4ccc(F)nc4)c32)cc1", "melting point": "139.8 to 141.7 °C"}
{"testSmiles": "COc1ccc(-c2nccc3ccn(S(=O)(=O)c4ccc(OC)cc4)c23)cc1", "melting point": "162.8 to 164.8 °C"}
{"testSmiles": "COc1ccc(S(=O)(=O)N2CCc3cccc(-c4ccccn4)c32)cc1", "melting point": "195.1 to 197 °C"}
{"testSmiles": "COc1ccc(S(=O)(=O)n2ccc3ccnc(-c4ccncc4)c32)cc1", "melting point": "193.1 to 194.3 °C"}
{"testSmiles": "COc1ccc(S(=O)(=O)N2CCc3cccc(-c4ccc(N(C)C)cc4)c32)cc1", "melting point": "178.4 to 179.7 °C"}

**Q:** I'd like to know its melting point. The molecule in question is `COc1ccc(S(=O)(=O)n2ccc3ccnc(-c4ccc(N(C)C)cc4)c32)cc1`
**A:** 111.5 to 114.5 °C

---

Measured melting point, listed per entry.

In the examples that follow, each entry is paired with its recorded melting point.
{"testSmiles": "COc1ccc(S(=O)(=O)n2ccc3cccc(-c4ccc(C#N)cc4)c32)cc1", "measuredResult": "164.3 to 165.7 °C"}
{"testSmiles": "COc1ccc(S(=O)(=O)N2CCc3cccc(-c4ccncc4)c32)cc1", "measuredResult": "195.9 to 196.8 °C"}
{"testSmiles": "COc1ccc(S(=O)(=O)n2ccc3ccnc(-c4ccc(O)cc4)c32)cc1", "measuredResult": "179 to 182 °C"}
{"testSmiles": "COc1ccc(S(=O)(=O)n2ccc3ccnc(-c4ccccc4)c32)cc1", "measuredResult": "148.9 to 151 °C"}
{"testSmiles": "COc1ccc(Nc2nccc3ccn(S(=O)(=O)c4ccc(OC)cc4)c23)cc1", "measuredResult": "155.5 to 158.3 °C"}
{"testSmiles": "COc1ccc(S(=O)(=O)N2CCc3cccc(-c4cccs4)c32)cc1", "measuredResult": "127.7 to 129.1 °C"}
{"testSmiles": "COc1ccc(S(=O)(=O)N2CCc3cccc(-c4ccc(Cl)cc4)c32)cc1", "measuredResult": "177.1 to 178.3 °C"}
{"testSmiles": "NS(=O)(=O)c1ccc(S(=O)(=O)N2CCc3cccc(-c4ccncc4)c32)cc1", "measuredResult": "241.7 to 242.9 °C"}

Continue with the next compound.
**Q:** I'd like to know its melting point. The compound in question is `COc1ccc(S(=O)(=O)n2ccc3ccnc(Nc4ccccc4)c32)cc1`
**A:** 138.5 to 139.7 °C

---

Measured melting point, listed per entry.

In the examples that follow, each entry is paired with its recorded melting point.
{"molecule": "COc1ccc(S(=O)(=O)n2ccc3ccnc(Nc4ccc(F)cc4)c32)cc1 [Compound 5]", "melting point": "125.1 to 127.1 °C"}
{"molecule": "COc1ccc(S(=O)(=O)n2ccc3ccnc(-c4ccc([N+](=O)[O-])cc4)c32)cc1 [Compound 14]", "melting point": "177.5 to 178.8 °C"}
{"molecule": "COc1ccc(S(=O)(=O)N2CCc3cccc(-c4ccc(N)cc4)c32)cc1 [Compound 20]", "melting point": "183.9 to 185.6 °C"}
{"molecule": "NS(=O)(=O)c1ccc(S(=O)(=O)N2CCc3cccc(-c4ccc(F)cc4)c32)cc1 [Compound 42]", "melting point": "188.7 to 190.2 °C"}
{"molecule": "COc1ccc(S(=O)(=O)N2CCc3cccc(-c4ccc(F)c(F)c4)c32)cc1 [Compound 21]", "melting point": "180.2 to 181.4 °C"}

**Q:** I'd like to know its melting point. The molecule in question is COc1ccc(S(=O)(=O)n2ccc3ccnc(-c4ccc(F)cc4)c32)cc1 [Compound 8]
**A:** 136 to 137 °C

**Q:** I'd like to know its melting point. The molecule in question is COc1ccc(S(=O)(=O)N2CCc3cccc(-c4ccc(CN(C)C)cc4)c32)cc1 [Compound 39]
**A:** 165 to 166 °C

**Q:** I'd like to know its melting point. The molecule in question is COc1ccc(S(=O)(=O)n2ccc3cccc(-c4ccc(F)cc4)c32)cc1 [Compound 19]
**A:** 181.2 to 182.4 °C

**Q:** I'd like to know its melting point. The molecule in question is COc1ccc(S(=O)(=O)N2CCc3cccc(-c4ccc(F)cc4)c32)cc1 [Compound 28]
**A:** 178.1 to 179.4 °C

**Q:** I'd like to know its melting point. The molecule in question is COc1ccc(S(=O)(=O)N2CCc3cccc(-c4cc(OC)c(OC)c(OC)c4)c32)cc1 [Compound 32]
**A:** 202.5 to 204.8 °C

**Q:** I'd like to know its melting point. The molecule in question is COc1ccc(S(=O)(=O)N2CCc3cccc(-c4ccc(O)cc4)c32)cc1 [Compound 26]
**A:** 179.4 to 180.5 °C
